biological target: CDK2 (human) (UniProt P24941); assay: Enzyme Assay
Quantity Name: IC50 (µM)
Only the number, expressed in µM, is required.

[Q] Query: IC50; subject: O=C(NCc1ccccc1)[C@@H]1CCCN1c1nc(Nc2cc(C3CC3)[nH]n2)c2cccn2n1
[A] 0.2

[Q] Another compound: CCNCCOc1ccc(Nc2nc(N)c(C(=O)c3ccc4c(c3)OCCO4)s2)cc1
[A] 10

[Q] Another compound: Cc1cc(Nc2nccn3c(-c4cnn(C)c4)cnc23)sn1
[A] 50

====

target: PIK3CA (human); assay: Inhibition of PIK3CA Kinase Activity
pIC50: −log10 of the molar value.
just bin them by pIC50: low (below 6), moderate (6 to below 7), high (7 or more)

[Q] Band for Cn1ncc2c(Nc3ccc(C(N)=O)cc3)nc(Nc3ccc(NC(=O)Nc4cccnc4)cc3)nc21 ?
[A] high

[Q] Another compound: COC[C@H]1OC(=O)c2coc3c2[C@@]1(C)C1=C(C3=O)[C@@H]2CC[C@H](C(=O)OCN(C)c3ccc([N+](=O)[O-])c4nonc34)[C@@]2(C)C[C@H]1OC(C)=O
[A] moderate

[Q] Another compound: O=C1Nc2ccccc2C(=C1)Oc3cccc(NCC4=CN(=CC=C4)[BH2-]C#N)c3
[A] low

[Q] Another compound: COc1ncc2cc1NS(=O)(=O)c1ccc(F)c(c1)C(=O)NCc1cncc(c1)-c1ccnc3c1SC2=C3
[A] high

[Q] Another compound: Oc1cccc(-c2nc(N3CCOCC3)c3[nH]cc(C4CCN(Cc5ccc(Cl)nc5)CC4)c3n2)c1
[A] moderate

[Q] Another compound: c1ccc(CCNc2nc(-c3ccc4cc[nH]c4c3)cc(N3CCOCC3)n2)nc1
[A] low

[Q] Another compound: O=c1cc(Oc2cccc(NCc3ccc4[nH]ccc4c3)c2)c2ccccc2[nH]1
[A] low

[Q] Another compound: C=CCN(/C=C1/C(=O)O[C@H](COC)[C@@]2(C)C1=C(O)C(=O)C1=C2[C@H](OC(C)=O)C[C@]2(C)C(=O)CCC12)CC=C (some centres undefined)
[A] high

[Q] Another compound: CCNC(=O)Nc1ccc2ncc(-c3cc(Cl)c(O)c(OC)c3)nc2n1
[A] moderate

[Q] Another compound: COc1ccc(-c2c[nH]c3ncc(-c4cncc(NS(=O)(=O)c5ccccc5)c4)cc23)cc1OC
[A] low

[Q] Another compound: Nc1ncc(-c2ccc3nccc(-c4ccncc4)c3c2)cc1S(=O)(=O)Nc1ccc(F)cc1F
[A] high

[Q] Another compound: CC(C)(C)OC(=O)Nc1ccc(CNc2cccc(Oc3cc(=O)[nH]c4ccccc34)c2)cn1
[A] low

[Q] Another compound: COc1ncc2cc1NS(=O)(=O)c1ccc(Cl)c(c1)C(=O)NCC1=CC=C(S1)c1ncnc3c1SC2=C3C
[A] high
